Each entry below lists one item and its recorded IC50 value.
# measured-target: UniProt P11802
# Sequence (P11802 whole entry): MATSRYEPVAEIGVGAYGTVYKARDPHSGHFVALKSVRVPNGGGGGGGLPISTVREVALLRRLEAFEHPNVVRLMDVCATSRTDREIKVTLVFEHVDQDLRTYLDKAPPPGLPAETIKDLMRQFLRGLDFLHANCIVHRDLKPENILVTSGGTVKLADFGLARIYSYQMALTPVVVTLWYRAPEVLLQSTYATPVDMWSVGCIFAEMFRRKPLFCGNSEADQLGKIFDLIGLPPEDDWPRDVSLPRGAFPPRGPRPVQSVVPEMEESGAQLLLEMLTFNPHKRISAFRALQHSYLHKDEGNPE
# Sequence (P24385 whole entry partner): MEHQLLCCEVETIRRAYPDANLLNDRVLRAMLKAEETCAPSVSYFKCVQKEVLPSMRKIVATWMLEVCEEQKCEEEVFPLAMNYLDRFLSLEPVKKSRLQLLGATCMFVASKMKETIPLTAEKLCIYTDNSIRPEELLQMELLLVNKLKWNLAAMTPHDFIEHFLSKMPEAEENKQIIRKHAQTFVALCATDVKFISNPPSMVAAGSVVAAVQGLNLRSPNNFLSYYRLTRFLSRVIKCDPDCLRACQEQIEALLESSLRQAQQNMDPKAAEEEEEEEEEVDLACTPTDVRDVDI
# test-details: Microfluidic LabChip kinase inhibition assay, CDK4-CyclinD1
# condition-parameters: CDK4 CyclinD1 IC50 (μM), Table 3a; 200 μM ATP; second value in parentheses on the next line
quantity: IC50 (µM)

{"compound": "CN1CCN(c2ccc(Nc3ncc4c(n3)N(C3CCCC3)C3(CCNC3=O)C4)cn2)CC1 (stereo not shown) [Compound C129]", "measured-target": "UniProt P11802", "quantity": "IC50", "value-reported": 0.103}
{"compound": "Cn1cc(-c2ccc(Nc3ncc4c(n3)N(C3CCCC3)C3(CCNC3=O)C4)cc2)cn1 (stereo not shown) [Compound C168]", "measured-target": "UniProt P11802", "quantity": "IC50", "value-reported": 1.31}
{"compound": "O=C1NCCC12Cc1cnc(Nc3ccc(N4CCC(N5CCOCC5)CC4)nc3)nc1N2C1CCCC1 (stereo not shown) [Compound C133]", "measured-target": "UniProt P11802", "quantity": "IC50", "value-reported": 0.202}
{"compound": "Cc1cc(Nc2ncc3c(n2)N(C2CCCC2)C2(CCNC2=O)C3)ccc1N1CCN(C(C)C)CC1 (stereo not shown) [Compound C121]", "measured-target": "UniProt P11802", "quantity": "IC50", "value-reported": 0.374}
